FYI, the data here is from the supplement of paper PMC10724198.

Below, each entry is listed with its recorded protein stability index.
# Test system: Saccharomyces cerevisiae;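 note: PSI is a weighted mean of sequencing reads over stability bins, variants kept only with over 10 reads, mCherry proximal and sfGFP distal, peptide attached via GGGS linker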
# procedure-text: protein stability index of tFT-peptide fusion (C-terminal peptide) (PSI (0-1 scale)); higher = more stable (slower turnover)
# assay-setup: genetic background: wild type; temperature: 30 C
readout: protein stability index

* VSRVHIRIEGNH | 0.634
* HGVYSVLRFFFC | 0.365
* CRLFFVFVFFWW | 0.249
* LFFGLCFVFFGF | 0.366
* GLRFFVSSLLCR | 0.388
* AFFRCKCYVGTP | 0.495
* VFYRPFFVLFFV | 0.0946
* NVALHPGVPRKC | 0.649
* IHIFIIFRVQWK | 0.156
* CQVSEWIRYRFL | 0.252
* VFVLFLRAVACR | 0.0193
* YHRKAILMCTFS | 0.299
* YMVSLSFTLVRS | 0.333
* IIFCVRVVGGDL | 0.38
* VFAFVVFLHFEC | 0.238
* PFFFIFVLPFVF | 0.309
* LFVLVLLCWMLT | 0.34
* VCFCFLRFLSLL | 0.191
* GREGETGSKAGR | 0.669
* HNQDKNVKYKIG | 0.33
* GLGMVIIGLLIG | 0.227
* IFIVLDFRCVSS | 0.242
* LFTTYVFLVFFQ | 0.29
* LLVYLYFFFSCS | 0.263
* LFMLHFLAVLRY | 0.242
* CWSSVGLSVCGC | 0.599
* GAICCFCCYLVF | 0.47
* GPVRTEFWLYVW | 0.583
* LTACRYVCFLLF | 0.261
* TDFICLLWLLHW | 0.41
* VYFRYWLLVVVF | 0.101
* GGIRLRVRFFVI | 0.168
* VLVVRVLLSDLV | 0.17
* LGRVSAKFFCVL | 0.134
* LLVFSLLYPCLV | 0.272
* LLYHFCLFFFRE | 0.449
* FPLFCRIHLLCS | 0.0768
* LLFYSYFFFVLY | 0.213
* SVVLCRFVLRIF | 0.0735
* VLCFTSAYHRLV | 0.262
* VRNKFSYVLRLN | 0.11
* GGSGGVSWRRVV | 0.264
* IFSFRWVLPFWL | 0.256
* CLQYRACLILLT | 0.343
* AFTFLLCWLFGV | 0.454
* FRTTGQAPPSKP | 0.644
* WSWVFVVLRFGR | 0.394
* LIRLCVAPMVCR | 0.349
* SCFRSLAVYFLC | 0.07
* FTGLCQGLWLGW | 0.649
* AVLFAPPLSSNF | 0.649
* FFTLSTVKLLRV | 0.412
* GLVWSKCFFIVG | 0.295
* YGETRGGGRGRW | 0.538
* TVERKMYWQRWG | 0.187
* SRGRVLRLLLLV | 0.0574
* LCSVWVGIVLLC | 0.0964
* VFSGGGFFLKVV | 0.215
* KLRMGRYIVRII | 0.135
* QPSSFDMLGLLL | 0.663
* GELDVRKLLKYF | 0.172
* SSAPPTLHTRPS | 0.663
* CKGPPVKFIVLM | 0.147
* SWFNLLSILPRD | 0.683
* NSCHFYSRFYLA | 0.3
* PRLRPQTVAFLS | 0.313
* HRDVISVVRNMS | 0.333
* RLGRYSIIHCLA | 0.102
* GYACSIFYLRCV | 0.23
* AFFFCVVVLFSF | 0.176
* VGVCGSSGRVGG | 0.645
* IWVWMLSVWLGG | 0.288
* TLFSFLLVFVFG | 0.206
* PPSLFLLLKVFF | 0.223
* LDVGGRRGGEHC | 0.594
* TVGVGWVWVGVL | 0.403
* VFFCLFWFFCSF | 0.453
* YFCVELSVFGFF | 0.358
* VGGGCVVVVRWG | 0.475
* IERGLMLTLCVH | 0.156
